RECORDED_ENDPOINT: IC50 (nM)
Quick reminder: number only, in nM, skip the unit.

Entry `CC(=O)N(C(=O)/C=C/c1ccc(O)cc1)[C@@H](Cc1ccc(F)cc1)C(=O)N[C@@H](Cc1ccc(NC(=N)N)cc1)C(=O)N[C@@H](CC(C)C)C(=O)N[C@@H](CCCN=C(N)N)C(N)=O` , Proteinase-activated receptor 1 (Homo sapiens, UniProt P25116) data, IC50 value: 62

IC50 for Proteinase-activated receptor 1 (Homo sapiens, UniProt P25116) with input `CC(=O)N(c1cccc(F)c1)[C@@H](Cc1ccc(F)cc1)C(=O)N[C@@H](Cc1ccc(NC(=N)N)cc1)C(=O)N[C@@H](CC(C)C)C(=O)N[C@@H](CCCN=C(N)N)C(N)=O` equals 160

Response field IC50 (Proteinase-activated receptor 1 (Homo sapiens, UniProt P25116)) for item `CC(=O)N(C(=O)/C=C/c1ccccc1)[C@@H](Cc1ccc(F)cc1)C(=O)N[C@@H](Cc1ccc2ccccc2c1)C(=O)N[C@@H](CC(C)C)C(=O)N[C@@H](CCCN=C(N)N)C(N)=O` : 246
